B1: CPEB3 Ribozyme (parent)
chain: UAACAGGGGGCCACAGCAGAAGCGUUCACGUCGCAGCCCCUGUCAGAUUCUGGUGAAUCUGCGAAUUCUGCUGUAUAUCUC

- Variants of: B1
- method.description: self-cleavage, relative activity (ratio to wild type); higher = more cleavage; in vitro, sequencing
Response field class: string, computed from recorded self-cleavage by ranges low bin (below 0.2), mid bin (0.2 to below 0.3), high bin (0.3 or more)

Could you place G30A A56U in its proper category? Many thanks.
high bin

Could you place A45G G55U in its proper category? Many thanks.
high bin

Could you place G9U G70A in its proper category? Many thanks.
low bin

Could you place U25C A28C in its proper category? Many thanks.
low bin

Could you place U51G U76A in its proper category? Many thanks.
high bin

Could you place U26A U58G in its proper category? Many thanks.
low bin

Could you place A2U U43A in its proper category? Many thanks.
high bin

Could you place C11A A65G in its proper category? Many thanks.
mid bin

Could you place U60A G63U in its proper category? Many thanks.
high bin

Could you place G9U A57G in its proper category? Many thanks.
mid bin

Could you place U43G U58C in its proper category? Many thanks.
low bin

Could you place C32A A64G in its proper category? Many thanks.
low bin

Could you place G19A U26C in its proper category? Many thanks.
high bin

Could you place G19U in its proper category? Many thanks.
mid bin

Could you place C23U U69C in its proper category? Many thanks.
low bin

Could you place G6C A20G in its proper category? Many thanks.
high bin

Could you place U54C U76G in its proper category? Many thanks.
high bin

Could you place U41C U72G in its proper category? Many thanks.
high bin

Could you place G7C A35G in its proper category? Many thanks.
high bin

Could you place A21U A65G in its proper category? Many thanks.
high bin

Could you place A20G A64U in its proper category? Many thanks.
high bin

Could you place C40A U76A in its proper category? Many thanks.
mid bin

Could you place A35C U78A in its proper category? Many thanks.
high bin

Could you place A65U A77U in its proper category? Many thanks.
mid bin

Could you place A35C C39A in its proper category? Many thanks.
high bin
